The origin of these recorded values is patent US20250197409A1.

# Assay target: androgen receptor (Homo sapiens, UniProt P10275, T878A)
# Construct: host or cells: LNCaP.FGC
# Sequence (P10275 whole entry T878A): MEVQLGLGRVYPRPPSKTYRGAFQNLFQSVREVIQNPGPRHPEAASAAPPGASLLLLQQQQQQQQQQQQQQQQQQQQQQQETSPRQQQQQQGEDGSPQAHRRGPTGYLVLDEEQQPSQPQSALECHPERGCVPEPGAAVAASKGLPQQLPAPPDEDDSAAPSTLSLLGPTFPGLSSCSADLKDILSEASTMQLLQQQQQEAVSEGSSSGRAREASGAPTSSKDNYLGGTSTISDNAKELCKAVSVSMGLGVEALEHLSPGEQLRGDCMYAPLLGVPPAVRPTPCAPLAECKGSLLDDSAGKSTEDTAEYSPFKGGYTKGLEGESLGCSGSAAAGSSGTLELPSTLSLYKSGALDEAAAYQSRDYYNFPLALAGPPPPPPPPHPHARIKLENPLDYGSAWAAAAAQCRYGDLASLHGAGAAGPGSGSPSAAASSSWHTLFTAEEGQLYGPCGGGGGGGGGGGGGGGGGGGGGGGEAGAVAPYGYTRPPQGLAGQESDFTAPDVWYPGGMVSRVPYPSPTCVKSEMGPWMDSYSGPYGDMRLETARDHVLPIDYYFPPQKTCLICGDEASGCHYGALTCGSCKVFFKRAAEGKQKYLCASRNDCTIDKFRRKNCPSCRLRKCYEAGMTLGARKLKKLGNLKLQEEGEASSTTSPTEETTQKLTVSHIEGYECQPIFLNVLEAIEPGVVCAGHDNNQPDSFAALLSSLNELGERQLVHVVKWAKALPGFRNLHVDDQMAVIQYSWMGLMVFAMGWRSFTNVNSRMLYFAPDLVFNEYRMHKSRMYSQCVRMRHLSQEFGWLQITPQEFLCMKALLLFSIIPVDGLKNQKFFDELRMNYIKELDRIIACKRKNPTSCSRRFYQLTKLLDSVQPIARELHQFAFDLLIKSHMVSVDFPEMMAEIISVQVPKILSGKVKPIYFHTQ
# Sequence (Q96SW2 whole entry partner): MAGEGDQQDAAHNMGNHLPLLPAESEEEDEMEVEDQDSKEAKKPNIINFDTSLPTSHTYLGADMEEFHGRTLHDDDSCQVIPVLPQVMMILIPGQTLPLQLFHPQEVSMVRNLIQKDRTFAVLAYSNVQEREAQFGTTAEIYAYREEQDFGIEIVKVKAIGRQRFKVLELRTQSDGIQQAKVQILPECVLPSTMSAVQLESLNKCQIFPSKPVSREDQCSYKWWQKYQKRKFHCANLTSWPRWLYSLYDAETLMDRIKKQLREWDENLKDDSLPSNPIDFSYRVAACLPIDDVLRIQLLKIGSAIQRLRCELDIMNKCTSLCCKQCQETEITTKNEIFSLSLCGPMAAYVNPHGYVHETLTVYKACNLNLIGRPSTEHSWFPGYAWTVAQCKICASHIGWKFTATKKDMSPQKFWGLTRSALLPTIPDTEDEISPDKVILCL
# Test summary: Androgen receptor degradation assay using Western blot analysis
# Type: cell-based
# Condition: LNCaP.FGC cells, serial 10x dilutions from 100 nM; read-out: AR DC50 (concentration needed for 50% AR degradation)
# Excerpt: Cells not treated with any of the above-mentioned compounds are used as a negative control. The internal loading control GAPDH was detected using a mouse monoclonal antibody (1:5000) (GTX627408, GeneTex International Corp., HsinChu City, Taiwan R.O.C.) and a goat anti-mouse HRP-conjugated secondary antibody (1:5000 dilution) (C04001, Croyez Bioscience Co., Ltd., Taipei City, Taiwan R.O.C.). […]
Measured property: DC50

{"Compound": "Cn1c2c(c3cc(OCCN4CCN(c5ccc(C(=O)N[C@H]6C(C)(C)[C@H](Oc7ccc(C#N)c(Cl)c7)C6(C)C)nc5)CC4)ccc31)C(=O)N(C1CCC(=O)NC1=O)C2=O (some centres unmarked)", "Value reported": "25 to 100 nM"}
{"Compound": "Cn1c2c(c3ccc(OCCCN4CCC(c5ncc(C(=O)N[C@H]6CC[C@H](Oc7ccc(C#N)c(Cl)c7)CC6)cn5)CC4)cc31)C(=O)N(C1CCC(=O)NC1=O)C2=O (some centres unmarked)", "Value reported": "25 to 100 nM"}
{"Compound": "Cn1c2c(c3ccc(OC4CCN(CC5CCN(c6ncc(C(=O)N[C@H]7CC[C@H](Oc8ccc(C#N)c(Cl)c8)CC7)cn6)CC5)CC4)cc31)C(=O)N(C1CCC(=O)NC1=O)C2=O (some centres unmarked)", "Value reported": "25 to 100 nM"}
{"Compound": "Cn1c2c(c3ccc(OC4CCN(CC5CCN(c6ccc(C(=O)N[C@H]7C(C)(C)[C@@H](Oc8ccc(C#N)c(Cl)c8)C7(C)C)cn6)CC5)CC4)cc31)C(=O)N(C1CCC(=O)NC1=O)C2=O (some centres unmarked)", "Value reported": "10 to 25 nM"}

Now for another entry.
DC50 lookup needed for Cn1c2c(c3ccc(OCCN4CCC(c5ncc(C(=O)N[C@H]6CC[C@H](Oc7ccc(C#N)c(Cl)c7)CC6)cn5)CC4)cc31)C(=O)N(C1CCC(=O)NC1=O)C2=O (some centres unmarked) , thanks.
25 to 100 nM
